# target: L-lactate dehydrogenase (Plasmodium falciparum (isolate CDC / Honduras)) (UniProt Q27743)
# Sequence (Q27743 whole entry, looked up): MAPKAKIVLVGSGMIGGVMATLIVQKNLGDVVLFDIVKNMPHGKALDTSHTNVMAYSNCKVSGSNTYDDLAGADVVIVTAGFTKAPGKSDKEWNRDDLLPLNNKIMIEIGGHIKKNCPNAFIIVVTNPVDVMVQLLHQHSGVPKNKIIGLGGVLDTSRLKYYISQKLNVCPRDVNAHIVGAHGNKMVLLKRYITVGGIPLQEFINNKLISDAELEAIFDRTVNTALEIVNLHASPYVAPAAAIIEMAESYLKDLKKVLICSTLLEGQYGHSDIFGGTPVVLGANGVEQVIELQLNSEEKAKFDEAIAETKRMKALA
# assay_comment: PfLDH activity inhibition – cell lysate, 3D7 strain, counter-screen for P. falciparum growth inhibition project (AID 2304);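 also: 0% = vehicle and 100% = reference inhibitor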
# assay_context: P. falciparum 3D7 crude extract, LDH APAD/NBT absorbance; at 2 µM; hits give high values
measurement_type: inhibition (%)

molecule="O=C(NC1CCN(c2ccnc(Nc3ccc(F)cc3)n2)C1)c1cc2ccccc2s1 (centres undefined)" result_value=-8
molecule=N#Cc1ccc(N[C@@H](CC2CCCCC2)C(=O)NCc2cc(F)c(F)cc2F)c2ccccc12 result_value=-3
molecule=Cc1nc(-c2ccc(-c3ccc(C(=O)Nc4ccc(C(C)C)c(OCCN(C)C)c4)cc3)c(C)c2)no1 result_value=-2
molecule=NC(=NCc1ccccc1)Nc1nc(-c2ccc(OCCCn3ccnc3)cc2)cs1 result_value=2
molecule=c1cncc(-c2cc(N3CCc4ccccc4C3)nc(-c3ccncc3)n2)c1 result_value=-5
molecule=Cc1[nH]c(C)c(-c2csc3ccccc23)c(=O)c1Cl result_value=6
molecule="O=C(Nc1ccc(OC2CCN(Cc3ccc(F)cc3)C2)c(Cl)c1)c1cccs1 (centres undefined)" result_value=2
molecule=COc1ccc(CNCCCCCCNCc2ccc(OC)c3ccccc23)c2ccccc12 result_value=-5
molecule=O=C(Nc1ccccc1)N(Cc1ccc(-c2cccc(CNCc3ccc4c(c3)OCO4)c2)cc1)C1CCN(Cc2ccccc2)CC1 result_value=-1

###

# assay_comment: antimalarial activity against Dd2 strain (AID 2302);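 also: 0% = DMSO untreated growth and 100% = chloroquine plus artemisinin killed control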
# assay_context: P. falciparum Dd2 in RBCs, LDH growth readout, 72 h; at 2 µM
Active and inactive are the calls of the source.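 The calls were made as follows: active = growth inhibition above 50% at the single 2 µM test dose, taken to imply half-maximal potency below 2 µM; inactive = the rest.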
Outcomes: yes (1) = active, no (0) = inactive

molecule="COc1cc(C(=O)N2CCOC(CCN3CCC(Cc4ccc(F)cc4)CC3)(c3ccc(Cl)c(Cl)c3)C2)cc(OC)c1OC (stereo not given)" assigned_class="yes (1)"
molecule=O=c1[nH]c(NCCCNCc2cc3c(Cl)cc(Cl)cc3[nH]2)nc2ccccc12 assigned_class="no (0)"
molecule=CNC(=O)CNC(=O)COc1cccc2ccccc12 assigned_class="no (0)"
molecule=CC(C)(C)C(=O)Nc1ccc(C(=O)Nc2cccc(-c3nc4ccccc4[nH]3)c2)cc1 assigned_class="yes (1)"
molecule=Cc1cc(NCCC(=O)Nc2ccccc2)nc(NCC2CCCCC2)n1 assigned_class="yes (1)"

###

# assay_comment: antimalarial activity against Dd2 strain (AID 2302);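 also: 0% = DMSO untreated growth and 100% = chloroquine plus artemisinin killed control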
# assay_context: P. falciparum Dd2 in RBCs, LDH growth readout, 72 h; at 2 µM
Calls of active or inactive are those of the source.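 How the source made its calls: active means growth inhibition above 50% at the single 2 µM test dose, taken to imply half-maximal potency below 2 µM; inactive means the rest.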
Outcomes: active, inactive

molecule=CNCc1ccc(CN(C)c2nc(N)c3cc(OC)c(OC)cc3n2)cc1 assigned_class=inactive
molecule="COc1ccc(C2C(C(=O)Nc3ccc(C)c(F)c3)c3cc(OC)c(OC)cc3C(=O)N2C)cc1 (stereo not given)" assigned_class=inactive
molecule=O=C(Nc1ccc(-c2nc3ccccc3[nH]2)cc1)c1ccc(N2CCOCC2)c([N+](=O)[O-])c1 assigned_class=inactive
molecule=NC(=O)c1cnc2cc(-c3ccoc3)ccc2c1Nc1ccc(NC(=O)Nc2ccccc2Cl)cc1 assigned_class=active
molecule=CCN1CCc2nc3ccccc3c(C(=O)Nc3ccc(C#N)cc3)c2C1 assigned_class=active
molecule=COc1ccc(C(=O)Nc2ccc3nc(N4CCCCC4)cc(C)c3c2)cc1[N+](=O)[O-] assigned_class=inactive
molecule=Cc1ccc(NC(=O)NC2CCN(CCCCCNC(=O)/C=C/c3ccc(Cl)c(Cl)c3)CC2)cc1C assigned_class=inactive
molecule=CCOc1ccc2nc(C)cc(NN=Cc3ccccc3F)c2c1 assigned_class=active
molecule=CC(=O)Nc1cccc(C(=O)Nc2cccc(-c3ccc(-c4nc5c(C)cccc5[nH]4)s3)c2)c1 assigned_class=inactive
molecule=N=C(N)c1ccc(NN=Cc2ccc(Oc3ccc(C(=N)N)cc3)cc2)cc1 assigned_class=active

###

# assay_comment: antimalarial activity against Dd2 strain (AID 2302);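 also: 0% = DMSO untreated growth and 100% = chloroquine plus artemisinin killed control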
# assay_context: P. falciparum Dd2 in RBCs, LDH growth readout, 72 h; at 2 µM
The source made the active and inactive calls.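 The calls were made as follows: active = growth inhibition above 50% at the single 2 µM test dose, taken to imply half-maximal potency below 2 µM; inactive = the rest.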
Outcomes: YES (active), NO (inactive)

compound=Cc1[nH]c(C)c(-c2cccc(-c3ccc(OC(F)(F)F)cc3)c2)c(=O)c1Br assigned_class=YES
compound=O=C(Nc1ccccc1)c1ccc(-c2cc3ccncc3cc2OC2CCNCC2)s1 assigned_class=NO
compound=CCN(CCCN1CCCCC1)c1cc(C)nc(Nc2cccc(OC(F)(F)F)c2)n1 assigned_class=YES
compound=Cc1nc(-c2cccc(C(F)(F)F)c2)n2nc(Nc3ccc(OCCN4CCCC4)cc3)ncc12 assigned_class=NO
compound=O=c1cc(NCCCN(Cc2cc3c(Cl)cc(Cl)cc3[nH]2)Cc2cc3c(Cl)cc(Cl)cc3[nH]2)[nH]c2ccccc12 assigned_class=YES
compound="CC(=O)Oc1c(C2C=CCCC2)c(OC(C)=O)c2ccccc2c1OC(C)=O (centres undefined)" assigned_class=YES
compound=CC(C)CN1CCCN(Cc2cccc(NC(=O)c3ccc(Cl)c(Cl)c3)c2)CC1 assigned_class=NO
compound=O=C(Nc1ccc(-c2ccccc2)s1)N[C@H]1CCN(Cc2ccc(OCCCN3CCCCC3)cc2)C1 assigned_class=NO
compound=COc1cccc(C(=O)Nc2ccc(Oc3ccc(Cl)cc3)cc2)c1 assigned_class=NO
compound="COc1cc(Nc2nccc(N3CCC(NC(=O)c4cccc(C#N)c4)C3)n2)cc(OC)c1OC (centres undefined)" assigned_class=YES
compound="N#Cc1ccccc1N1CCN(C2CCC(NC(=O)c3n[nH]c4cc(C(F)(F)F)ccc34)CC2)CC1 (centres undefined)" assigned_class=NO
compound=Cc1cc2[nH]c(-c3ccc(C(=O)NCCCN4CCN(c5cccc(Cl)c5)CC4)cc3)nc2cc1Cl assigned_class=YES
compound=CCOc1cc(O)c(-c2nc(N)ncc2-c2ccc3c(c2)OCCO3)cc1CC assigned_class=YES
compound=O=C(/C=C/c1ccc(Cl)cc1)NCCCCCN1CCCN(C(=O)Nc2ccc(Cl)c(C(F)(F)F)c2)CC1 assigned_class=NO
compound=COc1ccc(NC(=O)c2ccc(-c3nc(-c4ccc(Cl)cc4)cs3)cc2)cc1N1CCN(C)CC1 assigned_class=NO
compound=O=C(/C=C/c1ccccc1Cl)Nc1ccc(Br)c(OCCN2CCN(CCN3CCCC3)CC2)c1 assigned_class=YES
compound=COc1ccc(-c2nc(NC(=O)Cc3cccc(OC)c3)sc2C)cc1 assigned_class=YES
compound=COc1cc(Cc2cnc(N)nc2N)ccc1OCc1ccc(NC(C)=O)cc1 assigned_class=NO
compound=Cc1ccc(NC(=O)N2CCN(CCCCCNC(=O)/C=C/c3ccc(Cl)c(Cl)c3)CC2)cc1C assigned_class=NO

###

// reported inhibition for each item listed
# target: L-lactate dehydrogenase (Plasmodium falciparum (isolate CDC / Honduras))
# assay_comment: PfLDH activity inhibition – cell lysate, 3D7 strain, counter-screen for P. falciparum growth inhibition project (AID 2304);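 also: 0% = vehicle and 100% = reference inhibitor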
# assay_context: P. falciparum 3D7 crude extract, LDH APAD/NBT absorbance; at 2 µM; hits give high values
measurement_type: inhibition (%)

molecule=Cc1[nH]c2ccccc2c1CC1CCN(CC2CCN(C(=O)/C=C/c3ccc(Cl)c(Cl)c3)CC2)CC1 target="L-lactate dehydrogenase (Plasmodium falciparum (isolate CDC / Honduras))" result_value=-3
molecule=Cc1ccc(Nc2nc(NN=Cc3ccccc3[N+](=O)[O-])nc(Nc3ccc([N+](=O)[O-])cc3)n2)cc1C target="L-lactate dehydrogenase (Plasmodium falciparum (isolate CDC / Honduras))" result_value=5
molecule="COc1ccc(C2CCN(C#N)C2)cc1OC1CCCC1 (centres undefined)" target="L-lactate dehydrogenase (Plasmodium falciparum (isolate CDC / Honduras))" result_value=2
molecule=O=C(N[C@H]1CCN(Cc2ccc(OC3CCN(Cc4ccccc4)CC3)cc2)C1)c1ccc(Cl)c(Cl)c1 target="L-lactate dehydrogenase (Plasmodium falciparum (isolate CDC / Honduras))" result_value=1
molecule=O=C(CNC1=NCCN1)Nc1ccc(NC(=O)Nc2ccc(NC(=O)CNC3=NCCN3)cc2)cc1 target="L-lactate dehydrogenase (Plasmodium falciparum (isolate CDC / Honduras))" result_value=-2
molecule="COc1cccc(NC(=O)N2CCOC(CCN3CCC4(CCc5ccccc54)CC3)(c3ccc(Cl)c(Cl)c3)C2)c1 (centres undefined)" target="L-lactate dehydrogenase (Plasmodium falciparum (isolate CDC / Honduras))" result_value=5
molecule=O=C(NC1CCCCC1)N(Cc1cccc(-c2cccc(CNC3CCCC3)c2)c1)C1CCN(Cc2ccccc2)CC1 target="L-lactate dehydrogenase (Plasmodium falciparum (isolate CDC / Honduras))" result_value=-7
molecule=CC(C)Oc1cc(-c2ccc(S(C)(=O)=O)cc2)nc(N(Cc2cccc(F)c2F)Cc2cccc(F)c2F)n1 target="L-lactate dehydrogenase (Plasmodium falciparum (isolate CDC / Honduras))" result_value=4
molecule=O=C(NCc1ccc(F)cc1)Nc1cccc(-c2ccc(-c3nc4ccccc4[nH]3)cc2)c1 target="L-lactate dehydrogenase (Plasmodium falciparum (isolate CDC / Honduras))" result_value=2

###

// reported inhibition for each item listed
# target: L-lactate dehydrogenase (Plasmodium falciparum (isolate CDC / Honduras)) (UniProt Q27743)
# assay_comment: PfLDH activity inhibition – cell lysate, 3D7 strain, counter-screen for P. falciparum growth inhibition project (AID 2304);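 also: 0% = vehicle and 100% = reference inhibitor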
# assay_context: P. falciparum 3D7 crude extract, LDH APAD/NBT absorbance; at 2 µM; hits give high values
measurement_type: inhibition (%)

sample_smiles=N#Cc1ccc(N2C[C@@H](OCc3ccccc3)C[C@H]2C(=O)NCCC(c2ccccc2)c2ccccc2)c2ccccc12 result_unit=% result_value=-6
sample_smiles=Cc1cccc(-c2nn(-c3ccccc3)c3[nH]c(=O)c(CN4CCSCC4)cc23)c1 result_unit=% result_value=0
sample_smiles=O=C(Nc1cccc(CN2CCCN(Cc3ccc(O)cc3)CC2)c1)c1ccc(Br)cc1 result_unit=% result_value=-2
sample_smiles=CC(C)(C)c1ccc(NC(=O)Nc2ccc(Cn3ncc(N4CCCNCC4)c(Cl)c3=O)cc2)cc1 result_unit=% result_value=-7
sample_smiles=c1ccc(Oc2ccc(Nc3nncc4ccccc34)cc2)cc1 result_unit=% result_value=1
sample_smiles=CCOC(=O)c1ccc(N2CCN(CCCNC(=O)/C(=C/C=C/c3cc4cc(Cl)c(Cl)cc4[nH]3)OC)CC2)cc1 result_unit=% result_value=4
sample_smiles=O=C(NCCCCN1CCC(c2ccc3c(c2O)CCCC3)CC1)c1ccc(-c2ccc(Cl)cc2)cc1 result_unit=% result_value=1
sample_smiles=Cc1ccc2nc(-c3ccccc3)cc(NN=Cc3cccnc3)c2c1 result_unit=% result_value=1
sample_smiles=Nc1c2c(nc3ccc(Oc4ccc(Cl)cc4)cc13)CCCC2 result_unit=% result_value=-8
sample_smiles=COc1ccc(O)c(C(=O)NCCc2ccc(OC)c(-c3ccc(C(C)(C)C)cc3)c2)c1 result_unit=% result_value=5
sample_smiles=COc1cc2c(=O)c(Cc3ccc(Cl)cc3)c(C)[nH]c2cc1F result_unit=% result_value=1
sample_smiles=Cc1cc(N[C@@H](Cc2ccccc2)C(=O)NC2CCCC2)nc(NCCOc2ccccc2)n1 result_unit=% result_value=0
sample_smiles=N#Cc1cncc(-c2nc3c(N4CCC(N5CCCC5)CC4)cccc3n2CCNCc2ccccc2)c1 result_unit=% result_value=-2
sample_smiles=COc1ccccc1CN1CCC(NC(=O)c2ccc(-c3cccc(C(F)(F)F)c3)s2)CC1 result_unit=% result_value=-2
sample_smiles=CCCOc1cccc(C(=O)N[C@@H](Cc2ccccc2)[C@H](O)CNCc2ccccc2OC)c1 result_unit=% result_value=0
sample_smiles=Oc1ccc2ccccc2c1CNCCC1CCCCC1 result_unit=% result_value=5
sample_smiles=CN(Cc1ccc(C#N)cc1)C1CCN(c2cc(NC(=O)c3cccc(F)c3)ccn2)CC1 result_unit=% result_value=-2
sample_smiles=COc1ccc(S(=O)(=O)N(c2cc(Br)cc3c2OCC3)S(=O)(=O)c2ccc(OC)c(N3CCN(C)CC3)c2)cc1N1CCN(C)CC1 result_unit=% result_value=-8
sample_smiles=O=C(Nc1ccc(OC2CCN(Cc3ccccc3)CC2)c(Cl)c1)c1ccco1 result_unit=% result_value=6
